// data source = patent US20230339970A1

target: human CSNK1D (Homo sapiens); assay: Whole Cell nBRET CSNK1D Binding Assay; settings: living CHO cells stably expressing human CSNK1D tagged with nanoluciferase; NanoBret tracer 130 nM; 2 hours at 37 C
Sequence (P48730 whole entry): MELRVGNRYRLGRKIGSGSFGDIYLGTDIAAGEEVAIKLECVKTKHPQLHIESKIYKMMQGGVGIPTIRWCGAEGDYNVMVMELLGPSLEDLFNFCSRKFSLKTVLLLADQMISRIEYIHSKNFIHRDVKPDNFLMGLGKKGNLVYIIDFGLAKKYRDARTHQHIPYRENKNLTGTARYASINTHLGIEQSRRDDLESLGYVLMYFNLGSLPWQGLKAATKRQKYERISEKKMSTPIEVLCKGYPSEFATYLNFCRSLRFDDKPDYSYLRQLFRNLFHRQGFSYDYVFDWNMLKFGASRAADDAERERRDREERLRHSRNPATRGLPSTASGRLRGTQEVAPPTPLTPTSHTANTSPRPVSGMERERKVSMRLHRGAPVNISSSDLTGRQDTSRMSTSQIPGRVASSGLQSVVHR
assay.endpoint: pIC50
Just the number, please; pIC50 means minus log10 of the concentration in mol/L.

Input line: I'd like to know its pIC50. The molecule in question is Fc1ccc(-c2nn3c(c2-c2ccnc4[nH]ccc24)CCC3)nc1 [Example 6]
Output line: 7.46

Input line: I'd like to know its pIC50. The molecule in question is COCC1(F)CCc2c(-c3c(F)cnc4[nH]ncc34)c(-c3ccc(F)cn3)nn2C1 (single isomer, unassigned) [Example 302]
Output line: 5.49

Input line: I'd like to know its pIC50. The molecule in question is Cn1cnc(-c2nn3c(c2-c2ccnc4[nH]ncc24)COC(C)(C)C3)c1 [Example 127]
Output line: 5.49

Now look at this entry.
Input line: I'd like to know its pIC50. The molecule in question is Fc1ccc(-c2nn3c(c2-c2ccnc4[nH]ncc24)CCC(F)(COC(F)F)C3)nc1 (single isomer, unassigned) [Example 314]
Output line: 7.85
